Measured Activity, listed per entry for reference.
- TARGET_UNDER_TEST: HSP90 (Plasmodium falciparum 3D7)
- PROCEDURE_TEXT: Binding affinity to recombinant Plasmodium falciparum Hsp90 expressed in Escherichia coli BL21(DE3) pLysS assessed as thermophoresis shift at 50 uM by microscale thermophoresis assay
PROPERTY_LABEL: Activity (U)

COMPOUND: CC(C)NCC(O)Cn1c2ccc(Cl)cc2c2cc(Cl)ccc21 (stereo unspecified)
PROPERTY_LABEL: Activity
NUMBER: 8.38
--
COMPOUND: OC(CN1CCN(Cc2ccccc2)CC1)Cn1c2ccccc2c2ccccc21 (stereo unspecified)
PROPERTY_LABEL: Activity
NUMBER: 6.68
--
COMPOUND: O=C(c1ccccc1)N1CCN(CC(O)Cn2c3ccccc3c3ccccc32)CC1 (stereo unspecified)
PROPERTY_LABEL: Activity
NUMBER: 3.33
--
COMPOUND: CC(C)(C)NCC(O)Cn1c2ccccc2c2ccccc21 (stereo unspecified)
PROPERTY_LABEL: Activity
NUMBER: 0.725
--
COMPOUND: O=C(c1ccccc1)N1CCN(CC(O)Cn2c3ccc(Cl)cc3c3cc(Cl)ccc32)CC1 (stereo unspecified)
PROPERTY_LABEL: Activity
NUMBER: 6.71
--
COMPOUND: CCC(C)NCC(O)Cn1c2ccc(Cl)cc2c2cc(Cl)ccc21 (stereo unspecified)
PROPERTY_LABEL: Activity
NUMBER: 3.85

---

- System: Plasmodium falciparum
- PROCEDURE_TEXT: Antimalarial activity against Plasmodium falciparum K1 infected in human erythrocytes after 72 hrs by DAPI staining-based confocal imaging system
- Assay type: functional, organism-based
- TEST_CONDITIONS: K1, 72 h
PROPERTY_LABEL: IC50

COMPOUND: CC(C)NCC(O)Cn1c2ccc(Cl)cc2c2cc(Cl)ccc21 (stereo unspecified)
TARGET_UNDER_TEST: Plasmodium falciparum
RESULT: 0.48 to 1.8 µM

---

Measured log10 of Activity, listed per entry for reference.
- TARGET_UNDER_TEST: HSP90 (Plasmodium falciparum 3D7)
- Sequence (whole entry): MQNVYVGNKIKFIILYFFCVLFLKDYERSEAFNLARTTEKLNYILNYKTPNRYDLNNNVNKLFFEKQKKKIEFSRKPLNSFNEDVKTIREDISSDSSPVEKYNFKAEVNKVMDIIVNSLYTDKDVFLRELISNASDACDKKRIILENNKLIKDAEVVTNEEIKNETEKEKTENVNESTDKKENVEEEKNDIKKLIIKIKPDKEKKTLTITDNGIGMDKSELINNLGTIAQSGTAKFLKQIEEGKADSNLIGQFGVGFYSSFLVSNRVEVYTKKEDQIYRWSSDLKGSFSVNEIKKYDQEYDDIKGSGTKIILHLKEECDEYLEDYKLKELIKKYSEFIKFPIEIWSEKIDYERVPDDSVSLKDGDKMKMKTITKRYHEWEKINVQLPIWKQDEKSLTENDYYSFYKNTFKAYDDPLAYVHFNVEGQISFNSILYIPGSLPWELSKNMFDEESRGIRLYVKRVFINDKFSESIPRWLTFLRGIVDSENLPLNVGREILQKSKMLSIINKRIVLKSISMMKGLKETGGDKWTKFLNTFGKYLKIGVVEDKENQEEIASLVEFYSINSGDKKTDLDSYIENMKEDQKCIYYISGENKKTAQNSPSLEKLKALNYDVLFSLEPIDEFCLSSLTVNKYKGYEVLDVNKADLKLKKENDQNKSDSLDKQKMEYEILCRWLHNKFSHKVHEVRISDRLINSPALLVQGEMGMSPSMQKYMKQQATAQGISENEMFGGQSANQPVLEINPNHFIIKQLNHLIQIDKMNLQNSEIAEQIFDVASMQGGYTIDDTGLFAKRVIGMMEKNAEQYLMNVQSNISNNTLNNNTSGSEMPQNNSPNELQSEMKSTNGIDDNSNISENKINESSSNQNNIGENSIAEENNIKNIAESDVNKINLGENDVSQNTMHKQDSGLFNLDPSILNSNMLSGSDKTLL
- PROCEDURE_TEXT: Binding affinity to recombinant Plasmodium falciparum Hsp90 expressed in Escherichia coli BL21(DE3) pLysS assessed as thermophoresis shift at 50 uM by microscale thermophoresis assay
PROPERTY_LABEL: log10 of Activity (log10 of the value in U)

COMPOUND: OC(CN1CCOCC1)Cn1c2ccc(Cl)cc2c2cc(Cl)ccc21 (stereo not drawn)
NUMBER: 0.91

COMPOUND: OC(CN1CCOCC1)Cn1c2ccc(Br)cc2c2cc(Br)ccc21 (stereo not drawn)
NUMBER: 0.84

COMPOUND: CC(C)NCC(O)Cn1c2ccccc2c2ccccc21 (stereo not drawn)
NUMBER: 0.43

COMPOUND: CC(C)(CO)NCC(O)Cn1c2ccccc2c2ccccc21 (stereo not drawn)
NUMBER: -0.31

COMPOUND: OC(CN1CCN(Cc2ccccc2)CC1)Cn1c2ccc(Br)cc2c2cc(Br)ccc21 (stereo not drawn)
NUMBER: 0.82

COMPOUND: OC(CNC1CCCCC1)Cn1c2ccc(Cl)cc2c2cc(Cl)ccc21 (stereo not drawn)
NUMBER: 0.77

COMPOUND: OC(CNC1CCCCC1)Cn1c2ccccc2c2ccccc21 (stereo not drawn)
NUMBER: 0.17

COMPOUND: OC(CN1CCCCCC1)Cn1c2ccccc2c2ccccc21 (stereo not drawn)
NUMBER: 0.05

COMPOUND: OC(CN1CCN(Cc2ccccc2)CC1)Cn1c2ccc(Cl)cc2c2cc(Cl)ccc21 (stereo not drawn)
NUMBER: 0.81

COMPOUND: CN(C)CC(O)Cn1c2ccc(Br)cc2c2cc(Br)ccc21 (stereo not drawn)
NUMBER: -0.39

COMPOUND: O=C(c1ccccc1)N1CCN(CC(O)Cn2c3ccc(Br)cc3c3cc(Br)ccc32)CC1 (stereo not drawn)
NUMBER: 0.84

COMPOUND: CC1CCCC(C)N1CC(O)Cn1c2ccccc2c2ccccc21 (stereo not drawn)
NUMBER: -0.22

COMPOUND: CCC(CC)NCC(O)Cn1c2ccccc2c2ccccc21 (stereo not drawn)
NUMBER: -0.62
